- EXPERIMENT DESCRIPTION: MTT cell viability test of doxorubicin CCM (FePD) with and without deferoxamine
- Type: cell-based, mouse
- TEST SETTINGS: mouse, BNLCL.2 mouse embryonic liver cells, Group G: 4 μM + deferoxamine (13.5 μM), 2 h incubation, BNLCL.2 cells
MEASURED ENDPOINT: viability at 2 h, 4 μM
Your answer should be a number followed by the unit of measure.

The recorded viability at 2 h, 4 μM for "COc1cccc2c1C(=O)c1c(O)c3c(c(O)c1C2=O)C[C@@](O)(C(=O)CO)C[C@@H]3O[C@H]1C[C@H](N)[C@H](O)[C@H](C)O1" is 78.3%

---

- EXPERIMENT DESCRIPTION: MTT cell viability test of doxorubicin CCM (FePD) with and without deferoxamine
- Format: cell-based, mouse
- TEST SETTINGS: mouse, BNLCL.2 mouse embryonic liver cells, 13.5 μM, 2 h incubation, then 24 h fresh medium, BNLCL.2 cells
MEASURED ENDPOINT: viability at 2 h, 13.5 µM (%)
Field format: number, assumed %, no unit text.

// viability at 2 h, 13.5 µM value for CC(=O)N(O)CCCCCNC(=O)CCC(=O)N(O)CCCCCNC(=O)CCC(=O)N(O)CCCCCN [deferoxamine] : 104

Measured values drawn from patent US9597406B2 for this set.
